These measurements were taken from ChEMBL document CHEMBL3232813.

target: 2-amino-4-hydroxy-6-hydroxymethyldihydropteridine pyrophosphokinase (Escherichia coli (strain K12), UniProt P26281); test: Inhibition of GST-tagged Escherichia coli HPPK expressed in Escherichia coli using 6-hydroxymethyl-7,8-dihydropterin hydrochloride as substrate after 20 mins by luminescence assay
Task for the reader: assign each of the following molecules its reported IC50.
Answers are plain numbers, in µM.

Previously resolved entries follow.
INSERT INTO assay_data (smiles_str, endpoint, endpoint_value) VALUES
  ('Nc1nc2nc(SCC(=O)c3ccc(O)cc3)[nH]c2c(=O)[nH]1', 'IC50', 82),
  ('COc1ccc(C(=O)CSc2nc3nc(N)[nH]c(=O)c3[nH]2)cc1', 'IC50', 44);

Record IC50 per entry; entries follow.
1. Cc1ccc(C(=O)CSc2nc3nc(N)[nH]c(=O)c3[nH]2)cc1
2. Cc1ccccc1C(=O)CSc1nc2nc(N)[nH]c(=O)c2[nH]1
3. Nc1nc2nc(SCC(=O)c3ccccc3)[nH]c2c(=O)[nH]1

## Output
1. 64
2. 243
3. 139

## Input Report IC50 for N#Cc1ccc(CSc2nc3nc(N)[nH]c(=O)c3[nH]2)cc1 please.
## Output 254

----------
target: 2-amino-4-hydroxy-6-hydroxymethyldihydropteridine pyrophosphokinase (Escherichia coli (strain K12)); test: Inhibition of GST-tagged Escherichia coli HPPK expressed in Escherichia coli using 6-hydroxymethyl-7,8-dihydropterin hydrochloride as substrate at 250 uM after 20 mins by luminescence assay
Hi there, I'd appreciate the recorded inhibition for every entry that follows.
Give bare numbers, in %.

Some solved entries appear below for comparison.
INSERT INTO measurements (compound, endpoint, endpoint_value) VALUES
  ('Nc1nc2nc(SC(=O)c3ccc(F)cc3)[nH]c2c(=O)[nH]1', 'inhibition', 16),
  ('Cc1ccc(C(=O)CSc2nc3nc(N)[nH]c(=O)c3[nH]2)cc1', 'inhibition', 80),
  ('Nc1nc2nc(SCC(=O)c3ccccc3)[nH]c2c(=O)[nH]1', 'inhibition', 75),
  ('CC(Sc1nc2nc(N)[nH]c(=O)c2[nH]1)C(=O)c1ccccc1 (stereo not drawn)', 'inhibition', 10),
  ('COc1ccccc1C(=O)CSc1nc2nc(N)[nH]c(=O)c2[nH]1', 'inhibition', 12);

# per-item lookup of inhibition; items listed below
1. Nc1nc2[nH]cnc2c(=O)[nH]1
2. Nc1nc2nc(SCCN3CCOCC3)[nH]c2c(=O)[nH]1
3. Nc1nc2[nH]cnc2c(=S)[nH]1
4. Cc1ccccc1C(=O)CSc1nc2nc(N)[nH]c(=O)c2[nH]1

## Output
1: 48; 2: 7; 3: 51; 4: 48

----------
Target: 2-amino-4-hydroxy-6-hydroxymethyldihydropteridine pyrophosphokinase (Escherichia coli (strain K12), UniProt P26281)
Sequence (P26281 whole entry): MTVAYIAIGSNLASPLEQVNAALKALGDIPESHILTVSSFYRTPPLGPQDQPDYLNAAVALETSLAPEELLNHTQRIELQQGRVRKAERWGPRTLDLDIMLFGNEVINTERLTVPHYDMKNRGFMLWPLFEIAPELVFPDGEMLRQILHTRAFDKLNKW
Assay: Binding affinity to GST-tagged Escherichia coli HPPK expressed in Escherichia coli by SPR assay based alternative equilibrium affinity method in presence of AMP-CPP
Could you please report measured pKd for the items listed next?
Give bare numbers, as −log10 of the molar value.

Use these answered entries as a reference point.
INSERT INTO measurements (smiles_str, endpoint_value) VALUES
  ('Cc1nc2c(=O)[nH]c(N)nc2[nH]1', 4.74),
  ('N#Cc1ccc(C(=O)CSc2nc3nc(N)[nH]c(=O)c3[nH]2)cc1', 4.41),
  ('COc1ccc(C(=O)CSc2nc3nc(N)[nH]c(=O)c3[nH]2)cc1', 4.84),
  ('Cc1ccc(C(=O)CSc2nc3nc(N)[nH]c(=O)c3[nH]2)cc1', 5.17),
  ('Nc1nc2nc(SCC(=O)c3ccccc3)[nH]c2c(=O)[nH]1', 5.01);

We now examine a further compound.
## Input Quick one: pKd of Nc1nc2nc(SCC(=O)c3ccc(O)cc3)[nH]c2c(=O)[nH]1 ?
## Output 5.24
